Value source: patent US20200123233A1

ERA neutralizing antibody titer (RFFIT): EU/µM values by entry
Target: Rabies virus glycoprotein G, ERA strain (attenuated vaccine strain, ATCC VR332) (Rabies virus, ERA strain (genotype 1 lyssavirus)) (UniProt P03524)
Sequence (P03524 20-524 limits assumed): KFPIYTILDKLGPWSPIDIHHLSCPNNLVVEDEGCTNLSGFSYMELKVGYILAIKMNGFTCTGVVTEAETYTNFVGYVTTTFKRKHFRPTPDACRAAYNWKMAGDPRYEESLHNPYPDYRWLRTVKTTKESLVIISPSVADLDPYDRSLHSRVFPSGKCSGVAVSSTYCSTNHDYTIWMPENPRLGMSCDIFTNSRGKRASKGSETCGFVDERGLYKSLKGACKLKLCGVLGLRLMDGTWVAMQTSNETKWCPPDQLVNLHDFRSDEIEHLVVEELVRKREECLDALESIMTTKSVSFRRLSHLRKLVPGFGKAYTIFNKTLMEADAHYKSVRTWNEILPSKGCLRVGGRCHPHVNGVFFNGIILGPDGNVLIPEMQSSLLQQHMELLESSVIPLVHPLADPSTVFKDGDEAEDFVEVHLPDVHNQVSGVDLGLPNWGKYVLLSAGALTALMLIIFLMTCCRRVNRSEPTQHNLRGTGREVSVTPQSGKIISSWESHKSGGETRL
Assay: cell-based or functional assay
readoutKind: ERA neutralizing antibody titer (RFFIT): EU/µM (EU/µM)

- binder: "LG213D6 (VHH) VHH: EVQLVESGGGLVQPGGSLRLSCAASGFTFGDSDMSWVRQAPGEGPEWVAGINSGGGSTVYADSVKGRFTISRDNAKNMLYLQMNSLKPEDTAVYLCAQGLMAEVTAGYWGQGTQVTVSS"
  boundSign: "<"
  numericReadout: 0.01
- binder: "LG213B7 (VHH) VHH: EVQLVESGGGLVQAGGSLRLSCTVSGDTFDNSAAGWYRATSETQRELVARIRSSGSTNYADSVKGRFTVSRDNAKNTVYLQMNSLKPEDTAVYYCNVVSYGEYFWGKGTLVTVSS"
  boundSign: "="
  numericReadout: 0.12
- binder: "LG212A2 (VHH) VHH: EVQLVESGGGLVQAGGSLRLSCAASGRTFDTYFVGWFRQAPGKERDFVAAISWSGDRTFYADSVKGRFTISRDNAKNTEYLQMNSLKPEDTAVYYCAAREYGRLYSDSEAYDYWGQGTQVTVSS"
  boundSign: "="
  numericReadout: 0.01
- binder: "LG212B2 (VHH) VHH: EMQLVESGGGLVQAGDSLRLSCAASGDTFSWYVMAWFRQAPGKEREFVTWINRSGASTYYADSVKGRFTIFRDNDKNTVYLQMNSLKPEDTAVYYCAAGGFYGLRTTEERYDTWGQGTQVTVSS"
  boundSign: "="
  numericReadout: 0.04
- binder: "LG214C10 (VHH) VHH: EVQLVESGGGLVQPGGSLRLSCAASGFIFGSYDMSWVRQAPGKGPEWVSGINSGGGSTGYADSVKGRFTISRDNAKNTLYLQMNSLKPEDTAVYYCSTNLYPTTDDVWGQGTQVTVSS"
  boundSign: "="
  numericReadout: 0.52
- binder: "LG212G2 (VHH) VHH: EVQLVESGGGLVQPGGSLRLSCAASGFTFGSHDMSWVRQAPGKGSEWVSGIKSGGGSTLYADSVKGRFAISRDNAKNTLYLQMNSLKPEDTAVYYCATDLYGSTWYPGEDRGTQVTVSS"
  boundSign: "<"
  numericReadout: 0.01
- binder: "LG192C4 (VHH) VHH: EVQLVESGGGLVQAGGSLRLSCEASGRTFSSYAMVGWFRQAPGKEREFVAAVTRWSGARTVYADSVKGRFTISRDNAENTVYLQMNSLKPEDTAVYTCAADSTNRNSGAVYYSWAYDYWGQGTQVTVSS"
  boundSign: "<"
  numericReadout: 0.01
- binder: "LG213E6 (VHH) VHH: EVQLVESGGGLVQAGASLRLSCAASGSTLSRYGVGWFRQAPGKERELVASVDWSGSRTYYADSVKGRFTISRDNAKNTGYLQMNSLKPDDTAVYYCAADSSVVPGIEKYDDWGLGTQVTVSS"
  boundSign: "="
  numericReadout: 2.31
- binder: "LG213H7 (VHH) VHH: EVQLVESGGGLVQAGGSLRLSCAASGRTLSSYRMGWFRQAPGKEREFISTISWNGRSTYYADSVKGRFIFSEDNAKNTVYLQMNSLKPEDTAVYYCAAALIGGYYSDVDAWSYWGPGTQVTVSS"
  boundSign: "="
  numericReadout: 1.3
- binder: "LG213D7 (VHH) VHH: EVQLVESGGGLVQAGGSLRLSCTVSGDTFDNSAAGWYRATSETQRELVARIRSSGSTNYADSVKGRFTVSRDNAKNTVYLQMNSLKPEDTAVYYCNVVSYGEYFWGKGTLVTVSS"
  boundSign: "="
  numericReadout: 0.13
- binder: "LG192A8 (VHH) VHH: EVQLVESGGGLVQAGGSLRLSCAASERTVIAYTMGWFRRAPGKERDFVAAMNWNGGNTIYADSAKGRFTISRDNAKNTVYLQMNSLKAEDTAVYYCAARPRFWGSYEYDYWGQGTQVTVSS"
  boundSign: "<"
  numericReadout: 0.02
- binder: "LG191E4 (VHH) VHH: EVQLVESGGGLVQAGGSLRLSCAASGPTFSADTMGWFRQAPGKEREFVATIPWSGGIAYYSDSVKGRFTMSRDNAKNTVDLQMNSLKPEDTALYYCAGSSRIYIYSDSLSERSYDYWGQGTQVTVSS"
  boundSign: "<"
  numericReadout: 0.01
- binder: "LG214E8 (VHH) VHH: EVQLVESGGGSVQAGGSLRLSCAASGGTFNPYVMAWFRQAPGNEREFVARIRWSGGDAYYDDSVKGRFAITRDAAKNTVHLQMNSLKPEDTAVYYCAAATYGYGSYTYGGSYDLWGQGTQVTVSS"
  boundSign: "<"
  numericReadout: 0.02
- binder: "LG214A8 (VHH) VHH: EVQLVKSGGGSVQAGGSLRLSCAASGGTFNPYVMAWFRQAPGNEREFVARIRWSGGDAYYDDSVKGRFAITRDAAKNTVHLQMNSLKPEDTAVYYCAAATYGYGSYTYGGSYDLWGQGTQVTVSS"
  boundSign: "<"
  numericReadout: 0.01
- binder: "LG214F8 (VHH) VHH: EVQLVESGGDLVQAGGSLRLSCVASGSTYSINAMGWYRQAPGKLRELVAAFRTGGSTDYADSVKGRFTISRDTAKNTVYLQMNSLKPEDTAVYYCNAEVIYYPYDYWGQGTQVTVSS"
  boundSign: "="
  numericReadout: 0.36
